Value source: the supplement of paper PMC12455559

test: purified protein yield per well (BCA); higher = higher soluble expression
recorded_metric: purified protein yield per well (µg)
Numbers only, in µg.

Solved cases (3 shown):
- construct_sequence: "ADNPYQRGPEPTTSSVAATRGTFATAEVSVSKGNGFGGGKIYYPTDTSKGTFGAIAVVPGYTATWAAEGAWMGPWLASFGFVVIGIDTNSRTDYDTARGTQLLAALDYLTQKSSVRSRVDVKRLSVMGHSMGGGGAMYAALHRPSLWAAVGNAPFSPSQNLKSDRVPTLLLAGQKDTTVTPSSVVGLYNGIPAATEKGYLELTGAAHNFPTRSNSVMMRKVVPWLKIFVDHDTRYGQFLCPSLKDTTGITSYRSTCPLTTAGQ [ESM078]"
  purified protein yield per well / µg: 68.8
- construct_sequence: "QAPTRESLGAQGPYQVAYYSNFPAVQEFTAGTIYFPANKAQTFGAVAISPGFAERQENMSWWGRHLASHGFAVLTLDTNELRDDPAIRAEALMAALRVLSGESEREGSPLRGKIDTNRMAIMGHSMGGGGTLLAANTHSSELKAAIPFTPWQPDGDFSDVTVPTLIIAGEIDRVAPVNDHAWPHYQSLSASNPRLYLEIRGGNHFIANTAT [TEP038]"
  purified protein yield per well / µg: 52.1
- construct_sequence: "ANPYERGPAPTKASIEATTGYFATAKVTVAKSSVSGFGGGTIYYPTSTTSGTFGAIALVPGFTNVQSAVAWLGPRVASQGFVVFIIDTNSVYDSPDSRGTQLLAALDYLTNTSTVKSRVDATRLGVMGYSMGGGGALSATKTRTSIKASVPMAPYHSTKTWTTVKTPTLIVTGQSDTTAPPASHGLAFYNSLSTSIDKAYMELKGAGHSAPTSANTTIAKYSISWFKRFIDDDTRYDQFLCPNPTDTTISSYKSTCNYS [DP082]"
  purified protein yield per well / µg: 88

Take each entry in turn and give its purified protein yield per well.
1. GQAAVPVAVAGTSAFAKGPDPTEQSIQAQRGPFATAQRTVPSEAGRAFNRGTVHYPTDTSHGTYGAVVVSPGFFGPEFSVAWYGSTLASHGFVVLTLETNFLFDQPDARATQLLAGLDWLAARSPVKDRVDPNRLAVMGHSMGGGGTLIAASRNPALKAAIPLTPWNTSPDFSTVTVPTLVLGTDNDTVAPVARHADPMYASLRDKPDEGYVKLRGDHFTPIRYTAAATRFIVPWLKRYVDEDTRYSRFLCPLPAPDATLVSFELRCPV [DP040]
2. APGPSAPCSNCTRGPNPTEASLKSDRGPFTTARFSVSGFLKGFGDSTVYYPTNTTGRMGAIAVIPGYLSYESSIEWWGPRLASHGFVVMTMNTSTIYDQPDSRATQLSKALDYLIAQSNTSSSPIYNKIDSTRLGAIGWSMGGGGSLKLSTQRSLNAIIPQAPWYSGSNSFNTIKTPALILACSADTVAPVSVHASPFYNRIPGSTPKAFLEIYGGSHFCANSGYPNEDLLGLYGIAWMKRFIDFDNRYSQFLCGPNHEGDFAISDYRQNCPY [ESM096]
3. ADNPYERGPAPTNASIEAVRGPYAVSQATVSSLAVTGFGGGTIYYPTTTSDGTFGAVAISPGYTGTQSSIAWLGPRLASQGFVVFTIDTNTTLDQPDSRGRQLLAALDYLTRVSPLRTRVDSTRLGVMGHSMGGGGSLEAAKSRPSLQAAIPLTPWNLDKTWPEIQTPTLIVGADGDSIAPVSSHAEPFYENLPSSLDRAYLELNGASHFAPNSSNTTIAKYSISWLKRFIDNDTRYEQFLCPLPRPSLTIEEYRGNCPHQS [TEP188]

[28, 33.4, 72.2]

// query purified protein yield per well value for entry ADNPYERGPDPTERSIEAARGPFGVSTERVGSLGVSDFGGATIYHPTDRSQTYGAIAISPGFTAGWTSLSWLGERLASQGFVVIGIDTITRLDQPGSRGRQLLAALDYATTRSNARALIDAQRLAVAGHSMGGGGTLEAAAERPSLKAAIPLAPWNLDKSWAEVRTPTLIIGGESDNIAAVNTHSIPFYNSLSNAREKAYMEIDNGTHFFPNTANTLMAKYMISWMKRYIDDDTRYEQFLCPPPDDRGISEYRHTCPGS [DP088]
70
